Task for the reader: assign each of the following substances its reported Percent hemolysis at 50 μM.
Tested on: horse erythrocytes
REPORTED CONDITIONS: TRIS buffer pH 7.2, 1 h, 37°C, absorbance 540 nm, relative to melittin 100 μM, ± confidence interval (α = 0.05)
Method: The toxicity of peptide conjugates to eukaryotic cells was determined as the ability to lyse erythrocytes (Table SB). The hemolytic activity of the compounds was evaluated by determining hemoglobin release from erythrocyte suspensions of horse blood (5% vol/vol) (Oxoid) as previously described ([45]). Blood was centrifuged at 6000g for 5 min, washed three times with TRIS buffer (10 mM TRIS, 150 mM NaCl, pH 7.2) and diluted 10 times. […]
No end group written: not given here.
Please reply with the bare figure in % and do not write the unit itself.

input: State the recorded Percent hemolysis at 50 μM for this entry: KKLFKKILKKL-RINSAKDDAAGLQIA-OH [BP16-flg15]
output: 0

input: Returns the measured Percent hemolysis at 50 μM for the input substance. Input: RINSAKDDAAGLQIA-OH [flg15]
output: 0

input: Report Percent hemolysis at 50 μM for KKLFKKILKYLVWNQPVRGFKVYE [BP100-Pep13] please.
output: 5

input: Which value of Percent hemolysis at 50 μM has been reported for H-KKVVFWVKFKFKLFKKILKVL-NH2 [KSLW-BP13] in the records?
output: 62

input: Look up Percent hemolysis at 50 μM: KKLFKKILKYL-FKLFKKILKVL-NH2 [BP100-BP13]
output: 100

input: Entry H-KKVVFWVKFKYGIHTH-NH2 [KSLW-PIP1] : reported Percent hemolysis at 50 μM = ?
output: 8

input: Returns the measured Percent hemolysis at 50 μM for the input substance. Input: FKLFKKILKVL-NH2 [BP13, reference compound]
output: 5

input: Look up Percent hemolysis at 50 μM: Ac-KKLfKKILKK(COC3H7)L-RINSAKDDAAGLQIA-OH [BP475-flg15]
output: 1

input: I would be grateful if you could share the reported Percent hemolysis at 50 μM for VWNQPVRGFKVYEKKLFKKILKKL-NH2 [Pep13-BP16] .
output: 2

input: Recorded Percent hemolysis at 50 μM for KKLFKKILKKLVWNQPVRGFKVYE [BP16-Pep13] , please?
output: 1

input: // returns reported Percent hemolysis at 50 μM for input H-YGIHTHKKVVFWVKFK-NH2 [PIP1-KSLW]
output: 7

input: Given VWNQPVRGFKVYE-OH [Pep13] , state its recorded Percent hemolysis at 50 μM.
output: 0

input: Requested field: Percent hemolysis at 50 μM. Item: H-RINSAKDDAAGLQIAKKLFKKILKKL-NH2 [flg15-BP16]
output: 2

input: Consider the substance FKLFKKILKVL-KKLFKKILKYL-NH2 [BP13-BP100] and give its measured Percent hemolysis at 50 μM.
output: 100

input: Returns the measured Percent hemolysis at 50 μM for the input substance. Input: FKLFKKILKVL-KKLFKKILKKL-NH2 [BP13-BP16]
output: 86

input: For KKLFKKILKYL-RINSAKDDAAGLQIA-OH [BP100-flg15] , what is its reported Percent hemolysis at 50 μM?
output: 1

input: Please look up its Percent hemolysis at 50 μM: KKVVFWVKFK-RINSAKDDAAGLQIA-OH [KSLW-flg15]
output: 4

input: Entry VWNQPVRGFKVYEKKLFKKILKYL-NH2 [Pep13-BP100] : reported Percent hemolysis at 50 μM = ?
output: 9

input: Recorded Percent hemolysis at 50 μM for H-FKLFKKILKVLKKVVFWVKFK-NH2 [BP13-KSLW] , please?
output: 80

input: State the recorded Percent hemolysis at 50 μM for this entry: RINSAKDDAAGLQIA-KKLFKKILKYL-NH2 [flg15-BP100]
output: 48

input: Sample KKVVFWVKFK-NH2 [KSL-W, reference compound] — what was its Percent hemolysis at 50 μM?
output: 4

input: Quick check: Percent hemolysis at 50 μM of YGIHTH-NH2 [PIP1] ?
output: 4

input: Tell me the measured Percent hemolysis at 50 μM of KKLFKKILKKL-FKLFKKILKVL-NH2 [BP16-BP13] , please.
output: 100

input: // Percent hemolysis at 50 μM lookup, key: FKLFKKILKVL-KKLfKKILKYL-NH2 [BP13-BP143]
output: 100

input: Report Percent hemolysis at 50 μM for Ac-KKLFKKIK(COC3H7)KYL-RINSAKDDAAGLQIA-OH [BP387-flg15] please.
output: 3

input: Sample KKLfKKILKYL-FKLFKKILKVL-NH2 [BP143-BP13] — what was its Percent hemolysis at 50 μM?
output: 100
